This collection of values is drawn from ChEMBL document CHEMBL1130802.

Protein target, amino acids: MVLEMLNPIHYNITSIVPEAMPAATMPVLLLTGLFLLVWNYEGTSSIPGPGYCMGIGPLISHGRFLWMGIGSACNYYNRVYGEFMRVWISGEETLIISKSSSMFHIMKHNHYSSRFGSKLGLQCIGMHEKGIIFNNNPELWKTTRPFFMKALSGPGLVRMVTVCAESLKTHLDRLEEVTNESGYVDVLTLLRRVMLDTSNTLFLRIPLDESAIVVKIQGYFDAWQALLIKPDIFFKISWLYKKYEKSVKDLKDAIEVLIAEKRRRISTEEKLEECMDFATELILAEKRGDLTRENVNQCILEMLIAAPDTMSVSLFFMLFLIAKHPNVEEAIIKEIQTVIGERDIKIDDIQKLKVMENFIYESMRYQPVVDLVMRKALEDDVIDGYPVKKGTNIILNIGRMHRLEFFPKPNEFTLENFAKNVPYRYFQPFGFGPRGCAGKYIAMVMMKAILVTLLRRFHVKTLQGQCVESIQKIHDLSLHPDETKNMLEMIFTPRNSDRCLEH
recorded_metric: pKi
A value of pKi is the negative decimal logarithm of a concentration given in moles per litre.

Lookup result for O=C1/C(=C\c2ccncc2)C(c2ccccc2)c2ccccc21 (stereo unspecified) ; measured pKi: 7.99
